Each recorded value in this set is attributed to ChEMBL document CHEMBL1131439.

- MEASUREMENT_TARGET: UniProtKB Q72547
Response field label: string, one of T (IC50 strictly below 40 nM) or F.

Does this compound meet the criterion IC50 < 40 nM? `C#Cc1ccc2[nH]c(=O)n3c2c1CN(CC=C(C)C)[C@@H](C)C3` F

Hi there! Is IC50 for `CC(C)=CCN1Cc2c(C)ccc3[nH]c(=O)n(c23)C[C@@H]1C` below 40 nM, do you know? F

# check: IC50 < 40 nM for `CC(C)=CCN1Cc2c(C)ccc3[nH]c(=S)n(c23)C[C@@H]1C` T

Please check: IC50 for `C#Cc1ccc2[nH]c(=S)n3c2c1CN(CC=C(C)C)[C@@H](C)C3` , strictly under 40 nM or not? T

Check if IC50 falls below 40 nM for `CC(C)=CCN1Cc2cccc3[nH]c(=S)n(c23)C[C@@H]1C` . F

For `COc1ccc2[nH]c(=S)n3c2c1CN(CC=C(C)C)[C@@H](C)C3` , is the recorded IC50 below the cut-off of 40 nM? T

Please indicate whether the reported IC50 of `CC(C)=CCN1Cc2c(F)ccc3[nH]c(=S)n(c23)C[C@@H]1C` is strictly below 40 nM. T
